tested on: 966289-007-R4-J1-PDC complex spheroid viability; experiment: Anticancer human tumor 966289-007-R4-J1-PDC patient-derived pancreatic adenocarcinoma cell line growth inhibition [RAS]; conditions: second compound 0.03 µM; first compound 0.1 µM; active means viability on the fitted dose curve at most 10% of control; inactive means the rest
A correct response names exactly one class from class 1 for active, class 0 for inactive

Worked set:
compound	test.target	group
CCN1CCN(Cc2ccc(Nc3ncc(F)c(-c4cc(F)c5nc(C)n(C(C)C)c5c4)n3)nc2)CC1 + CCn1c(-c2cc(N3CCN(C)CC3)cnc2C(C)OC)c2c3cc(ccc31)-c1csc(n1)CC(NC(=O)C1CC1C)C(=O)N1CCCC(N1)C(=O)OCC(C)(C)C2	966289-007-R4-J1-PDC complex spheroid viability	class 0
C=CC(=O)Nc1cc(Nc2nccc(-c3cn(C)c4ccccc34)n2)c(OC)cc1N(C)CCN(C)C + CCn1c(-c2cccnc2C(C)OC)c2c3cc(ccc31)N1CCOC(CC(NC(=O)C(C(C)C)N(C)C(=O)C3(F)CCN(C(=O)C#CC(C)(C)N(C)C)CC3)C(=O)N3CCCC(N3)C(=O)OCC(C)(C)C2)C1	966289-007-R4-J1-PDC complex spheroid viability	class 0
NC1c2ccccc2OC12CCN(c1cnc3c(N4CCCc5ncccc54)n[nH]c3n1)CC2 (stereo not drawn) + CCn1c(-c2cccnc2C(C)OC)c2c3cc(ccc31)N1CCOC(CC(NC(=O)C(C(C)C)N(C)C(=O)C3(F)CCN(C(=O)C#CC(C)(C)N(C)C)CC3)C(=O)N3CCCC(N3)C(=O)OCC(C)(C)C2)C1	966289-007-R4-J1-PDC complex spheroid viability	class 0
CC(Nc1ccc2c(c1)OCCn1cc(N3C(=O)OCC3C(F)F)nc1-2)C(N)=O (stereo not drawn) + CCn1c(-c2cc(N3CCN(C)CC3)cnc2C(C)OC)c2c3cc(ccc31)-c1csc(n1)CC(NC(=O)C1CC1C)C(=O)N1CCCC(N1)C(=O)OCC(C)(C)C2	966289-007-R4-J1-PDC complex spheroid viability	class 0
CC1(O)CCCC1n1c(=O)c(C(F)F)cc2cnc(NC3CCN(S(C)(=O)=O)CC3)nc21 (stereo not drawn) + CCn1c(-c2cccnc2C(C)OC)c2c3cc(ccc31)N1CCOC(CC(NC(=O)C(C(C)C)N(C)C(=O)C3(F)CCN(C(=O)C#CC(C)(C)N(C)C)CC3)C(=O)N3CCCC(N3)C(=O)OCC(C)(C)C2)C1	966289-007-R4-J1-PDC complex spheroid viability	class 0
Cc1nc(N2CCC3(CC2)COC(C)C3N)c(CO)nc1Sc1ccnc(N)c1Cl (stereo not drawn) + CCn1c(-c2cccnc2C(C)OC)c2c3cc(ccc31)N1CCOC(CC(NC(=O)C(C(C)C)N(C)C(=O)C3(F)CCN(C(=O)C#CC(C)(C)N(C)C)CC3)C(=O)N3CCCC(N3)C(=O)OCC(C)(C)C2)C1	966289-007-R4-J1-PDC complex spheroid viability	class 0
C[C@@H](NC(=O)c1ncnc(N)c1Cl)c1ncc(C(=O)Nc2cc(C(F)(F)F)c(Cl)cn2)s1 + CCn1c(-c2cc(N3CCN(C)CC3)cnc2C(C)OC)c2c3cc(ccc31)-c1csc(n1)CC(NC(=O)C1CC1C)C(=O)N1CCCC(N1)C(=O)OCC(C)(C)C2	966289-007-R4-J1-PDC complex spheroid viability	class 0

Now for another entry.
GET /call?item= Nc1ccn(C2OC(CO)C(O)C2(F)F)c(=O)n1 (stereo not drawn) + CCn1c(-c2cccnc2C(C)OC)c2c3cc(ccc31)N1CCOC(CC(NC(=O)C(C(C)C)N(C)C(=O)C3(F)CCN(C(=O)C#CC(C)(C)N(C)C)CC3)C(=O)N3CCCC(N3)C(=O)OCC(C)(C)C2)C1 returns the recorded outcome of this test.
class 1

* * *

# viability, T/C annotations
test system: 966289-007-R4-J1-PDC complex spheroid viability; assay: Anticancer human tumor 966289-007-R4-J1-PDC cell line growth inhibition [RAS]; details: second compound 0.3 µM; first compound 1 µM; stronger effect = lower value;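 further: spheroids exposed to agents for one week before readout; percent viability relative to DMSO vehicle control wells as 100%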

compound	recorded.metric	observed.value
O=C(c1ccc(F)c(F)c1Nc1ccc(I)cc1F)N1CC(O)([C@@H]2CCCCN2)C1 + CCn1c(-c2cc(N3CCN(C)CC3)cnc2C(C)OC)c2c3cc(ccc31)-c1csc(n1)CC(NC(=O)C1CC1C)C(=O)N1CCCC(N1)C(=O)OCC(C)(C)C2	viability, T/C	10.4%

Give a short answer stating reported viability, T/C for Cc1nc(N2CCC3(CC2)COC(C)C3N)c(CO)nc1Sc1ccnc(N)c1Cl (centres undefined) + CCn1c(-c2cc(N3CCN(C)CC3)cnc2C(C)OC)c2c3cc(ccc31)-c1csc(n1)CC(NC(=O)C1CC1C)C(=O)N1CCCC(N1)C(=O)OCC(C)(C)C2 .
108%

Give a short answer stating reported viability, T/C for Nc1ccn(C2OC(CO)C(O)C2(F)F)c(=O)n1 (centres undefined) + CCn1c(-c2cc(N3CCN(C)CC3)cnc2C(C)OC)c2c3cc(ccc31)-c1csc(n1)CC(NC(=O)C1CC1C)C(=O)N1CCCC(N1)C(=O)OCC(C)(C)C2 .
1.21%

Give a short answer stating reported viability, T/C for CCN1CCN(Cc2ccc(Nc3ncc(F)c(-c4cc(F)c5nc(C)n(C(C)C)c5c4)n3)nc2)CC1 + CCn1c(-c2cc(N3CCN(C)CC3)cnc2C(C)OC)c2c3cc(ccc31)-c1csc(n1)CC(NC(=O)C1CC1C)C(=O)N1CCCC(N1)C(=O)OCC(C)(C)C2 .
79%

* * *

Tested on: 966289-007-R4-J1-PDC complex spheroid viability
Assay: Anticancer human tumor 966289-007-R4-J1-PDC cell line growth inhibition [RAS];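 further: spheroids exposed to agents for one week before readout; percent viability relative to DMSO vehicle control wells as 100%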
Details: second compound 0.3 µM; first compound 0.1 µM; stronger effect = lower value
Text: RAS pathway inhibitors in Combinations in Complex Spheroids A high-throughput screen of multi-cell type tumor spheroids was designed to identify active combinations of RAS pathway inhibitors and targeted small molecules. Complex spheroids include a stromal component modeled by human endothelial cells (HUVEC) and fibroblasts modeled by human mesenchymal stem cells (MSCs). […] Compounds. […] If the clinical Cmax for an agent had not been determined, the highest concentration tested was 10 microM. […]
recorded.metric: viability, T/C (%)
API: value field is a number in %; no unit string.

Recorded viability, T/C, per entry:
molecule	recorded.metric	observed.value
C=CC(=O)Nc1cc(Nc2nccc(-c3cn(C)c4ccccc34)n2)c(OC)cc1N(C)CCN(C)C + CCn1c(-c2cccnc2C(C)OC)c2c3cc(ccc31)N1CCOC(CC(NC(=O)C(C(C)C)N(C)C(=O)C3(F)CCN(C(=O)C#CC(C)(C)N(C)C)CC3)C(=O)N3CCCC(N3)C(=O)OCC(C)(C)C2)C1	viability, T/C	101
Cc1nc(N2CCC3(CC2)COC(C)C3N)c(CO)nc1Sc1ccnc(N)c1Cl (stereo not given) + CCn1c(-c2cccnc2C(C)OC)c2c3cc(ccc31)N1CCOC(CC(NC(=O)C(C(C)C)N(C)C(=O)C3(F)CCN(C(=O)C#CC(C)(C)N(C)C)CC3)C(=O)N3CCCC(N3)C(=O)OCC(C)(C)C2)C1	viability, T/C	89.2
CCC(CC)c1cc(NC2CCC(N)C2)n2nccc2n1 (stereo not given) + CCn1c(-c2cc(N3CCN(C)CC3)cnc2C(C)OC)c2c3cc(ccc31)-c1csc(n1)CC(NC(=O)C1CC1C)C(=O)N1CCCC(N1)C(=O)OCC(C)(C)C2	viability, T/C	116
CC(C)NCC(C(=O)N1CCN(c2ncnc3c2C(C)CC3O)CC1)c1ccc(Cl)cc1 (stereo not given) + CCn1c(-c2cc(N3CCN(C)CC3)cnc2C(C)OC)c2c3cc(ccc31)-c1csc(n1)CC(NC(=O)C1CC1C)C(=O)N1CCCC(N1)C(=O)OCC(C)(C)C2	viability, T/C	102
CCC(CC)c1cc(NC2CCC(N)C2)n2nccc2n1 (stereo not given) + CCn1c(-c2cccnc2C(C)OC)c2c3cc(ccc31)N1CCOC(CC(NC(=O)C(C(C)C)N(C)C(=O)C3(F)CCN(C(=O)C#CC(C)(C)N(C)C)CC3)C(=O)N3CCCC(N3)C(=O)OCC(C)(C)C2)C1	viability, T/C	94.5

Give a short answer stating reported viability, T/C for C[C@@H](NC(=O)c1ncnc(N)c1Cl)c1ncc(C(=O)Nc2cc(C(F)(F)F)c(Cl)cn2)s1 + CCn1c(-c2cc(N3CCN(C)CC3)cnc2C(C)OC)c2c3cc(ccc31)-c1csc(n1)CC(NC(=O)C1CC1C)C(=O)N1CCCC(N1)C(=O)OCC(C)(C)C2 .
101

Give a short answer stating reported viability, T/C for Nc1ccn(C2OC(CO)C(O)C2(F)F)c(=O)n1 (stereo not given) + CCn1c(-c2cc(N3CCN(C)CC3)cnc2C(C)OC)c2c3cc(ccc31)-c1csc(n1)CC(NC(=O)C1CC1C)C(=O)N1CCCC(N1)C(=O)OCC(C)(C)C2 .
1.27

* * *

tested on: 966289-007-R4-J1-PDC complex spheroid viability; experiment: Anticancer human tumor 966289-007-R4-J1-PDC cell line growth inhibition [RAS]; conditions: second compound 0.0316 µM; first compound 0.316 µM; stronger effect = lower value;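 further: spheroids exposed to agents for one week before readout; percent viability relative to DMSO vehicle control wells as 100%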
recorded.metric: viability, T/C (%)
API: value field is a number in %; no unit string.

compound	result.units	viability, T/C
O=C(c1ccc(F)c(F)c1Nc1ccc(I)cc1F)N1CC(O)([C@@H]2CCCCN2)C1 + C=CC(=O)N1CCN(c2nc(OCC3CCCN3C)nc3c(F)c(-c4nc(N)cc(C)c4C(F)(F)F)c(Cl)cc23)C(C)C1	%	66.5
Nc1ccn(C2OC(CO)C(O)C2(F)F)c(=O)n1 (stereo not given) + C=CC(=O)N1CCN(c2nc(OCC3CCCN3C)nc3c(F)c(-c4nc(N)cc(C)c4C(F)(F)F)c(Cl)cc23)C(C)C1	%	1.47
C=CC(=O)Nc1cc(Nc2nccc(-c3cn(C)c4ccccc34)n2)c(OC)cc1N(C)CCN(C)C + C=CC(=O)N1CCN(c2nc(OCC3CCCN3C)nc3c(F)c(-c4nc(N)cc(C)c4C(F)(F)F)c(Cl)cc23)C(C)C1	%	97.3

# return viability, T/C for CC(C)NCC(C(=O)N1CCN(c2ncnc3c2C(C)CC3O)CC1)c1ccc(Cl)cc1 (stereo not given) + C=CC(=O)N1CCN(c2nc(OCC3CCCN3C)nc3c(F)c(-c4nc(N)cc(C)c4C(F)(F)F)c(Cl)cc23)C(C)C1 , test system: 966289-007-R4-J1-PDC complex spheroid viability
126

# return viability, T/C for C=CC(=O)Nc1cc(Nc2nccc(-c3cn(C)c4ccccc34)n2)c(OC)cc1N(C)CCN(C)C + C#Cc1c(F)ccc2cc(O)cc(-c3ncc4c(N5CC6CCC(C5)N6)nc(OCC56CCCN5CC(F)C6)nc4c3F)c12 , test system: 966289-007-R4-J1-PDC complex spheroid viability
94.2

# return viability, T/C for O=C(c1ccc(F)c(F)c1Nc1ccc(I)cc1F)N1CC(O)([C@@H]2CCCCN2)C1 + C#Cc1c(F)ccc2cc(O)cc(-c3ncc4c(N5CC6CCC(C5)N6)nc(OCC56CCCN5CC(F)C6)nc4c3F)c12 , test system: 966289-007-R4-J1-PDC complex spheroid viability
55.5

# return viability, T/C for CC1(O)CCCC1n1c(=O)c(C(F)F)cc2cnc(NC3CCN(S(C)(=O)=O)CC3)nc21 (stereo not given) + C#Cc1c(F)ccc2cc(O)cc(-c3ncc4c(N5CC6CCC(C5)N6)nc(OCC56CCCN5CC(F)C6)nc4c3F)c12 , test system: 966289-007-R4-J1-PDC complex spheroid viability
28.4

# return viability, T/C for Cc1nc(N2CCC3(CC2)COC(C)C3N)c(CO)nc1Sc1ccnc(N)c1Cl (stereo not given) + C#Cc1c(F)ccc2cc(O)cc(-c3ncc4c(N5CC6CCC(C5)N6)nc(OCC56CCCN5CC(F)C6)nc4c3F)c12 , test system: 966289-007-R4-J1-PDC complex spheroid viability
111

# return viability, T/C for CCN1CCN(Cc2ccc(Nc3ncc(F)c(-c4cc(F)c5nc(C)n(C(C)C)c5c4)n3)nc2)CC1 + C=CC(=O)N1CCN(c2nc(OCC3CCCN3C)nc3c(F)c(-c4nc(N)cc(C)c4C(F)(F)F)c(Cl)cc23)C(C)C1 , test system: 966289-007-R4-J1-PDC complex spheroid viability
84.8

# return viability, T/C for NC1c2ccccc2OC12CCN(c1cnc3c(N4CCCc5ncccc54)n[nH]c3n1)CC2 (stereo not given) + C#Cc1c(F)ccc2cc(O)cc(-c3ncc4c(N5CC6CCC(C5)N6)nc(OCC56CCCN5CC(F)C6)nc4c3F)c12 , test system: 966289-007-R4-J1-PDC complex spheroid viability
98.4
